Target: T1, integrin αVβ3 (UniProt P06756 31-992; P05106 27-718)
T1 construct: Coated on the ELISA plate
T1 sequence (P06756 31-992, chain 1 of 2): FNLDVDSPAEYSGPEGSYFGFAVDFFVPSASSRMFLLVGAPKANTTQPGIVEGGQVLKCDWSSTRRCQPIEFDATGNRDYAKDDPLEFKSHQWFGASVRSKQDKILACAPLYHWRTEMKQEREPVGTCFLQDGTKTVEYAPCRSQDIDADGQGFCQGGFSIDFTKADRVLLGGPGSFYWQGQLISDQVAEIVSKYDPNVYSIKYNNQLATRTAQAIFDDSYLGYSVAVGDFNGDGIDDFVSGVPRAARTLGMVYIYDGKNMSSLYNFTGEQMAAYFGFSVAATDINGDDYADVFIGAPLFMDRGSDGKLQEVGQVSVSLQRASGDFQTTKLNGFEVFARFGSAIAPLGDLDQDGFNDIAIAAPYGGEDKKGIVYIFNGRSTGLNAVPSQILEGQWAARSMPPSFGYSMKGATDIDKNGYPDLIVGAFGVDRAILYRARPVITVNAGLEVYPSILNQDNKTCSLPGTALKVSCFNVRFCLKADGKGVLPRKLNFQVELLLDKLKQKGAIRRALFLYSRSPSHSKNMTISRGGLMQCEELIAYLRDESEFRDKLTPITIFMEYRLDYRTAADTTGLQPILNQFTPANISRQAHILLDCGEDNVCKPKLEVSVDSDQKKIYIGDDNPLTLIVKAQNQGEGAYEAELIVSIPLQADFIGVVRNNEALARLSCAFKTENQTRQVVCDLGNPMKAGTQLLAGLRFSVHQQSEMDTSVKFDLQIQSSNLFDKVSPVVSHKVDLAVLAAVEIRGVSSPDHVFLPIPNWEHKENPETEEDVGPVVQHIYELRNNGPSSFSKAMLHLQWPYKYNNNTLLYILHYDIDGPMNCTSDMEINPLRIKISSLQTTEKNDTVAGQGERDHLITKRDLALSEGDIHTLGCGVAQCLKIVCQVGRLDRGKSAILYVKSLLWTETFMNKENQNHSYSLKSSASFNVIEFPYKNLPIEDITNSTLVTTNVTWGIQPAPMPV
T1 sequence (P05106 27-718, chain 2 of 2): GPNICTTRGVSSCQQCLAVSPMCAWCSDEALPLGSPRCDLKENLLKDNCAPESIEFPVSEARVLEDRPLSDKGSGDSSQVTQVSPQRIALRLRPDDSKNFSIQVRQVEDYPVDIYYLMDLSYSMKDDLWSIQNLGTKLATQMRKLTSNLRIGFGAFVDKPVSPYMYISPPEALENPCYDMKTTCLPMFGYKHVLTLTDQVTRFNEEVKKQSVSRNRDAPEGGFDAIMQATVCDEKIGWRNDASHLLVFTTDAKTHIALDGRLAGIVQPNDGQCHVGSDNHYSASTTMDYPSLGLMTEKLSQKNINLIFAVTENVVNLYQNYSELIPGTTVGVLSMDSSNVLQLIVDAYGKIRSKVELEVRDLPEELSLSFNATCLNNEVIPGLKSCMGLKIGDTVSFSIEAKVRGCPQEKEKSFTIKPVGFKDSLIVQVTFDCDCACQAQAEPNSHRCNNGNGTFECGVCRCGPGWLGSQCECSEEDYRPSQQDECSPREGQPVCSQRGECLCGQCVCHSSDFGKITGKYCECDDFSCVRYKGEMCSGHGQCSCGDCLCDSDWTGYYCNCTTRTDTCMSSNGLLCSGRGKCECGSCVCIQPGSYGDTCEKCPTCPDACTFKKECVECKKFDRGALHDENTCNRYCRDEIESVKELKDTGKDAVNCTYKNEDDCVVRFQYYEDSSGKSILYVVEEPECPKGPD
Assay: ELISA, coated integrin, anti-MICA-HRP
Task for the reader: assign each of the following binders its reported αvβ3 signal/ng.

Qu. Entry under review: soluble MICA generated from pKK38 (loop 1 insert 3.3) (designed binder, From pKK34 (His6, Glu125); secreted by 293T cells; also called 1-3.3) HHHHHHEPHSLRYNLTVLSWDGSVQSGFLTEVHLDGQPFLRCDRQKCRAKPQGQWAEDVLGNKTWDRETRDLTGNGKDLRMTLAHIKDQKEGLHSLQEIRVCEIHEDNSTRSSQHFYYDGELFLSQNLETEEWTMPQSSRAQTLAMNVRNFLKEDAMKTKTHYHAMHADCLQELRRYLKSGVVLRRTVPPMVNVTRVPRGDSDLTVTCRASGFYPWNITLSWRQDGVSLSHDTQQWGDVLPDGNGTYQTWVATRICQGEEQRFTCYMEHSGNHSTHPVPSGK . Reported αvβ3 signal/ng?
Ans. 30.7 signal/ng MICA

Qu. Entry under review: soluble MICA generated from pKK45 (loop 1 insert extended 3.3sp) (designed binder, From pKK34 (His6, Glu125); secreted by 293T cells; also called 1-3.3sp) HHHHHHEPHSLRYNLTVLSWDGSVQSGFLTEVHLDGQPFLRCDRQKCRAKPQGQWAEDVLGNKTWDRETRDLTGNGKDLRMTLAHIKDQKEGLHSLQEIRVCEIHEDNSTRSSQHFYYDGELFLSQNLETEEWTMPQSSRAQTLAMNVRNFLKEDAMKTKTHYHAMHADCLQELRRYLKSGVVLRRTVPPMVNVTSGGSGGGSRVPRGDSDLTSGGSGGGVTCRASGFYPWNITLSWRQDGVSLSHDTQQWGDVLPDGNGTYQTWVATRICQGEEQRFTCYMEHSGNHSTHPVPSGK . Reported αvβ3 signal/ng?
Ans. 9.51 signal/ng MICA

Qu. Entry under review: soluble MICA generated from pKK41 (loop 1 insert 5.2) (designed binder, From pKK34 (His6, Glu125); secreted by 293T cells; also called 1-5.2) HHHHHHEPHSLRYNLTVLSWDGSVQSGFLTEVHLDGQPFLRCDRQKCRAKPQGQWAEDVLGNKTWDRETRDLTGNGKDLRMTLAHIKDQKEGLHSLQEIRVCEIHEDNSTRSSQHFYYDGELFLSQNLETEEWTMPQSSRAQTLAMNVRNFLKEDAMKTKTHYHAMHADCLQELRRYLKSGVVLRRTVPPMVNVTRGDTFTQSVTCRASGFYPWNITLSWRQDGVSLSHDTQQWGDVLPDGNGTYQTWVATRICQGEEQRFTCYMEHSGNHSTHPVPSGK . Reported αvβ3 signal/ng?
Ans. 17.7 signal/ng MICA

Qu. Entry under review: soluble MICA generated from pKK47 (loop 1 insert extended 5.3sp) (designed binder, From pKK34 (His6, Glu125); secreted by 293T cells; also called 1-5.3sp) HHHHHHEPHSLRYNLTVLSWDGSVQSGFLTEVHLDGQPFLRCDRQKCRAKPQGQWAEDVLGNKTWDRETRDLTGNGKDLRMTLAHIKDQKEGLHSLQEIRVCEIHEDNSTRSSQHFYYDGELFLSQNLETEEWTMPQSSRAQTLAMNVRNFLKEDAMKTKTHYHAMHADCLQELRRYLKSGVVLRRTVPPMVNVTSGGSGGGSHLARGDDLTYSGGSGGGVTCRASGFYPWNITLSWRQDGVSLSHDTQQWGDVLPDGNGTYQTWVATRICQGEEQRFTCYMEHSGNHSTHPVPSGK . Reported αvβ3 signal/ng?
Ans. 9.99 signal/ng MICA

Qu. Entry under review: soluble MICA generated from pKK53 (tight loop 1 insert T-3.5) (designed binder, From pSW324 (from pKK34: His6, Glu125); secreted by 293T cells; also called 1-T-3.5) HHHHHHEPHSLRYNLTVLSWDGSVQSGFLTEVHLDGQPFLRCDRQKCRAKPQGQWAEDVLGNKTWDRETRDLTGNGKDLRMTLAHIKDQKEGLHSLQEIRVCEIHEDNSTRSSQHFYYDGELFLSQNLETEEWTMPQSSRAQTLAMNVRNFLKEDAMKTKTHYHAMHADCLQELRRYLKSGVVLRRTVPPMVNGSRGDSLIMHCRASGFYPWNITLSWRQDGVSLSHDTQQWGDVLPDGNGTYQTWVATRICQGEEQRFTCYMEHSGNHSTHPVPSGK . Reported αvβ3 signal/ng?
Ans. 18.7 signal/ng MICA

Qu. Entry under review: soluble MICA generated from pKK40 (loop 1 insert 5.1) (designed binder, From pKK34 (His6, Glu125); secreted by 293T cells; also called 1-5.1) HHHHHHEPHSLRYNLTVLSWDGSVQSGFLTEVHLDGQPFLRCDRQKCRAKPQGQWAEDVLGNKTWDRETRDLTGNGKDLRMTLAHIKDQKEGLHSLQEIRVCEIHEDNSTRSSQHFYYDGELFLSQNLETEEWTMPQSSRAQTLAMNVRNFLKEDAMKTKTHYHAMHADCLQELRRYLKSGVVLRRTVPPMVNVTVTRGDTFTQSVTCRASGFYPWNITLSWRQDGVSLSHDTQQWGDVLPDGNGTYQTWVATRICQGEEQRFTCYMEHSGNHSTHPVPSGK . Reported αvβ3 signal/ng?
Ans. 19.5 signal/ng MICA
